Consider the following compounds; for each one, report its fraction unbound at 24 h, 5 µM.
EXPERIMENT: Unbound fraction in human plasma at 5 uM measured after 24 hrs by LC-MS/MS analysis
Type: ADME, cell-free
Keep it simple and answer with nothing but the number.

Exam item: Please look up its fraction unbound at 24 h, 5 µM: C[C@@H]1NC(=O)[C@@H](N(C)C(=O)[C@H](CCN)NC(=O)c2ccc(-c3ccc(Cl)cc3)cc2)c2ccc(OCCN)c(c2)-c2cc(ccc2OCCN)C[C@@H](C(=O)NCC#N)NC1=O
Marked response: 0.2

Exam item: GET /values?readout=fraction unbound at 24 h, 5 µM&item= Cc1nc(-c2ccc(C(C)(C)C)cc2)nc(N)c1C(=O)N[C@@H](CCN)C(=O)N(C)[C@@H]1C(=O)N[C@@H](C)C(=O)N[C@H](C(=O)NCC#N)Cc2ccc(OCCN)c(c2)-c2cc1ccc2OCCN
Marked response: 0.12

Exam item: What fraction unbound at 24 h, 5 µM value was documented for this compound, Cc1cc(-c2ccc(C(C)(C)C)cc2)nc(N)c1C(=O)N[C@@H](CCN)C(=O)N(C)[C@@H]1C(=O)N[C@@H](C)C(=O)N[C@H](C(=O)NCC#N)Cc2ccc(OCCN)c(c2)-c2cc1ccc2OCCN ?
Marked response: 0.058

Exam item: # lookup: fraction unbound at 24 h, 5 µM of CCCCCCCC(=O)N[C@@H](CCN)C(=O)N(C)[C@@H]1C(=O)N[C@@H](C)C(=O)N[C@H](C(=O)NCC#N)Cc2ccc(OCCN)c(c2)-c2cc1ccc2OCCN
Marked response: 0.59

Exam item: Given Cc1cc(-c2ccc(C(C)(C)C)cc2)ccc1C(=O)N[C@@H](CCN)C(=O)N(C)[C@@H]1C(=O)N[C@@H](C)C(=O)N[C@H](C(=O)NCC#N)Cc2ccc(OCCN)c(c2)-c2cc1ccc2OCCN , state its recorded fraction unbound at 24 h, 5 µM.
Marked response: 0.001

###

EXPERIMENT: Unbound fraction in human plasma at 5 uM measured after 24 hrs by LC-MS/MS analysis
Assay type: ADME, cell-free
ASSAY_READOUT: fraction unbound at 24 h, 5 µM
Write the value as a bare number.

Exam item: Return reported fraction unbound at 24 h, 5 µM; argument: Cc1cc(-c2ccc(C(C)(C)C)cc2)ncc1C(=O)N[C@@H](CCN)C(=O)N(C)[C@@H]1C(=O)N[C@@H](C)C(=O)N[C@H](C(=O)NCC#N)Cc2ccc(OCCN)c(c2)-c2cc1ccc2OCCN
Marked response: 0.11

Exam item: Looking for the measured fraction unbound at 24 h, 5 µM of CCCCCCCCCCCC(=O)N[C@@H](CCN)C(=O)N(C)[C@@H]1C(=O)N[C@@H](C)C(=O)N[C@H](C(=O)NCC#N)Cc2ccc(OCCN)c(c2)-c2cc1ccc2OCCN , can you help?
Marked response: 0.03

Exam item: // query fraction unbound at 24 h, 5 µM value for entry Cc1cc(-c2ccc(-c3ccccc3)cc2)ccc1C(=O)N[C@@H](CCN)C(=O)N(C)[C@@H]1C(=O)N[C@@H](C)C(=O)N[C@H](C(=O)NCC#N)Cc2ccc(OCCN)c(c2)-c2cc1ccc2OCCN
Marked response: 0.017

Exam item: Sample Cc1cc(-c2ccc(C(C)C)cc2)ccc1C(=O)N[C@@H](CCN)C(=O)N(C)[C@@H]1C(=O)N[C@@H](C)C(=O)N[C@H](C(=O)NCC#N)Cc2ccc(OCCN)c(c2)-c2cc1ccc2OCCN — what was its fraction unbound at 24 h, 5 µM?
Marked response: 0.086

Exam item: What fraction unbound at 24 h, 5 µM value was documented for this molecule, C[C@@H]1NC(=O)[C@@H](N(C)C(=O)[C@H](CCN)NC(=O)c2ccc(-c3ccc(C(C)(C)C)cc3)nc2N)c2ccc(OCCN)c(c2)-c2cc(ccc2OCCN)C[C@@H](C(=O)NCC#N)NC1=O ?
Marked response: 0.063
